test name: method code SF-RC, from DOI: 10.1002/jlcr.1863
measurement context: pH 7.4
test readout: logD
Reply with just the number.

Data request, read-out logD, for O=c1[nH]c(=O)n(C2CC(O)C(CO)O2)cc1-c1cn(CCF)nn1 (stereo unspecified)
-1.33

====

Let's look at some compounds and their measured logP.
Reply with just the number.

Sample records with logP:
O=C1NC(Cc2c[nH]c3ccccc23)C(=O)NC1Cc1ccc(O)cc1 (stereo not drawn) | 1.21
O=C1NC(Cc2ccccc2)C(=O)NC1Cc1ccccc1 (stereo not drawn) | 2.08

Turning to the following compound.
Data request, read-out logP, for O=C1CNC(=O)C(Cc2ccccc2)N1 (stereo not drawn)
0.25

====

test name: method code SF-HPLC, from DOI: 10.1021/jf0623440, PMID: 17263479
test readout: logP
Reply with just the number.

Data request, read-out logP, for `O=[N+]([O-])/C=C1/NCCN1Cc1cnc(Cl)s1`
0.03

====

Please enter yes (1) where logP is greater than or equal to 2, and no (0) where it is lower.

Cn1c(=O)nc(-c2ccccc2)c2ccc(Cl)cc21 | yes (1)
Cn1c(=O)nc(-c2ccccc2)c2cc(F)ccc21 | no (0)
Cn1c(=O)nc(-c2ccccc2)c2cc(Cl)ccc21 | yes (1)
COc1ccc2c(c1)c(-c1ccccc1)nc(=O)n2C | no (0)
Cn1c(=O)nc(-c2ccccc2)c2cc(C(F)(F)F)ccc21 | yes (1)

Confirm if logP reported for the compound `Cn1c(=O)nc(-c2ccccc2)c2cc(S(C)(=O)=O)ccc21` is 2 or above.
no (0)

====

test name: method code SF-RC, from PMID: 2883979
measurement context: pH 10.0
test readout: logD
Reply with just the number.

Data request, read-out logD, for `CN1CCC(N(Cc2ccccc2)c2ccccc2)CC1`
2.6

====

test name: method code SF-RC, from DOI: 10.1016/s0969-8051(98)00005-5, PMID: 9720665
measurement context: pH 7.0
test readout: logD

Data request, read-out logD, for OC1OC2COC(c3ccc(I)cc3)OC2C(O)C1O (stereo unspecified)
1.9

====

test name: method code SF-AS, from DOI: 10.1016/s0969-8051(99)00063-3, PMID: 10628565
measurement context: pH 7.0
Let's look at some compounds and their measured logD.

O=c1[nH]c(Nc2ccccc2)nc2c1ncn2CC(O)CO (configuration not stated) | 0.4

Turning to the following compound.
Data request, read-out logD, for O=c1[nH]c(Nc2ccccc2)nc2c1ncn2CC(O)CSCCO (configuration not stated)
0.83

====

test name: method code SF-AS, from DOI: 10.1016/j.ejmech.2004.01.002, PMID: 15072846
measurement context: pH 7.4
test readout: logD
Reply with just the number.

Data request, read-out logD, for `NC(=O)N/N=C/C=C/c1ccc([N+](=O)[O-])o1`
0.97

====

test name: method code SF-TN, from DOI: 10.1007/bf00632830
test readout: logP
Reply with just the number.

Data request, read-out logP, for `CN(C)C`
0.27

====

test readout: logP

Data request, read-out logP, for `CC[C@H](Oc1ccccc1)C(=O)N[C@@H]1C(=O)N2[C@@H]1SC(C)(C)[C@@H]2C(=O)O`
2.58

====

Let's look at some compounds and their measured logP.
test name: method code SF-AS, from DOI: 10.1016/0048-3575(88)90061-2
Reply with just the number.

Data request, read-out logP, for `O=C(NC(=O)c1c(F)cccc1F)Nc1ccc(Oc2ncc(C(F)(F)F)cc2Cl)cc1`
3.53

Data request, read-out logP, for `O=C(NC(=O)c1c(F)cccc1F)Nc1ccc(Oc2ncc(Cl)cc2C(F)(F)F)cc1`
3.5

Data request, read-out logP, for `O=C(NC(=O)c1c(F)cccc1F)Nc1ccc(Oc2ccc(C(F)(F)F)cn2)cc1`
2.8

Data request, read-out logP, for `O=C(NC(=O)c1c(F)cccc1F)Nc1ccc(Oc2ccccn2)cc1`
1.57
